Readings of Human Androgen Receptor Binding RBA (%) R1881 = 100 for the listed compounds
- TARGET_OF_ASSAY: Human Androgen Receptor (Homo sapiens (Human))
- Sequence (P10275 whole entry): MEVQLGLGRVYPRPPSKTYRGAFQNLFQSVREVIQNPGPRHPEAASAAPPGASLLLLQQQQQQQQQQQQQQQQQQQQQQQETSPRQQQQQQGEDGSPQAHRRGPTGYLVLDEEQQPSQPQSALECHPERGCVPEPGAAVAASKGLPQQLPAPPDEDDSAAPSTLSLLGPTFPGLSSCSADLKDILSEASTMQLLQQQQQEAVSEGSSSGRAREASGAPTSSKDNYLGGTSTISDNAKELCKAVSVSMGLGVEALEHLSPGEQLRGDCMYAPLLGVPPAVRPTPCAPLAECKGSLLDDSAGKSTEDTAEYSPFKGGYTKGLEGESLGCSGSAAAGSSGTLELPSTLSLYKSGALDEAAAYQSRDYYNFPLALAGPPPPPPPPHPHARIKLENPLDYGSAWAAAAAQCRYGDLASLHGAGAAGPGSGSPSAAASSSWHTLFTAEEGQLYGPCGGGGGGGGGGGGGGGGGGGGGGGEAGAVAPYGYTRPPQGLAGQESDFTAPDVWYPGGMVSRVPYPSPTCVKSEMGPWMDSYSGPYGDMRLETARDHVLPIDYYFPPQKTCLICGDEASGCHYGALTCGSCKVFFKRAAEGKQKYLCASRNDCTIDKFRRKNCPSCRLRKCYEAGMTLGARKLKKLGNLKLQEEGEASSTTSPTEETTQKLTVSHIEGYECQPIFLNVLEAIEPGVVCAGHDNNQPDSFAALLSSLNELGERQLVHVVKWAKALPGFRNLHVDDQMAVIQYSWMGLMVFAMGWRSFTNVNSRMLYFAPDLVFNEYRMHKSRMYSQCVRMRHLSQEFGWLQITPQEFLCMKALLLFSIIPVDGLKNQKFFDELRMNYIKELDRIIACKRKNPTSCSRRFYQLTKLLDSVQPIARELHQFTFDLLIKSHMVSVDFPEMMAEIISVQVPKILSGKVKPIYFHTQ
- ASSAY_DETAILS: Androgen receptor assay: [3H]R1881 displacement, cytosol of HEK-293 cells transfected with hAR (hydroxylapatite assay)
- Type: binding
- CONDITION_SUMMARY: relative binding affinity, R1881 = 100; […]
PARAMETER: Human Androgen Receptor Binding RBA (%) R1881 = 100

SMILES_REPRESENTATION: CC1(C)C(=O)N(c2ccc(C#N)c(C(F)(F)F)c2)CC(=O)N1CCCOc1ccc(-c2ccncc2)cc1
REPORTED: <0.1%
--
SMILES_REPRESENTATION: CC1(C)NC(=O)N(c2ccc(C#N)c(Cl)c2)C1=O
REPORTED: ~0.1%
--
SMILES_REPRESENTATION: CC1(C)C(=O)N(c2ccc(C#N)c(Cl)c2)C(=O)N1CCCOc1ccc(-c2ccncc2)cc1
REPORTED: 9.2 ± 1.9 (n = 5) %
